Could you please report measured pKd for the items listed next?
# SYSTEM_NAME: T1, cTnI quality control product recombinant protein (human, UniProt P19429 2-210, limits assumed)
# T1 construct: treated as the same molecule; also called cTnI antigen; cardiac troponin I
# PROTOCOL_TEXT: AMC sensor, antibody immobilised, cTnI in solution
One number for each entry, as −log10 of the molar value.

Mutation 1-55 (antibody, V domains shown, Built as m8) VH: EVQLQQSGPELVKPGASVKMSCKASGYTFTIYVVHWVKQKPGQGLEWIGYIYPYIDGTKYNEKFKGKATLTVDKSSSTAFMELSSLTSEDSAVYYCARSGYGGYGLAWLAYWGQGTLVTVSA VL: QAVVIQESALTTSPGETVTLTCRSSTGAVTTSQYANWVQEKPDHLFTGLIGGSQNRAPGVPARFSGSLIGDKAALTITGAQTEDEAIYFCALVYSNNWVFGGGTKLTVLG    8.37

Inquiry: Field request: pKd | item: Mutation 1-24 (antibody, V domains shown, Built as m8) VH: EVQLQQSGPELVKPGASVKMSCKASGYTFTIYVVHWVKQKPGQGLEWIGYIYPYLDGTKYNEKFKGKATLTVDKSSSTAFMELSSLTSEDSAVYYCARSGYGQYGLAWLAYWGQGTLVTVSA VL: QAVVIQESALTTSPGETVTLTCRSSTGAATTSQYANWVQEKPDHLFTGLIGGSNNRAPGVPARFSGSLIGDKAALTITGAQTEDEAIYFCALVYSNNWVFGGGTKLTVLG
Reply text: 9.20

Hello, the source for this data is patent US20220033484A1, in case you need it.
